Values compiled from patent US5162328A.

- experimental.protocol: Pharmacokinetics in dogs (plasma concentration by HPLC)
- Assay type: in vivo, dog (beagle)
- condition.description: dog, plasma, po, 2 mg/kg/day, Dog 3, day 1; 2 mg/kg/day PO
So I've got a bunch of molecules here, and I need their half-life values.
Answers are plain numbers, in h.

Cc1cc(Nc2nccc(-c3ccncc3)n2)ccc1N.Cl.Cl [Compound 2, reference compound]    0.97

API: the following record is the query input.
Give reported half-life value for "c1cc(Nc2nccc(-c3cccs3)n2)cc(OCCn2ccnc2)c1" 1.82

* * *

Kindly state AUC(0-t) for each of the entries shown.
- experimental.protocol: Pharmacokinetics in dogs (plasma concentration by HPLC)
- Assay type: in vivo, dog (beagle)
- condition.description: dog, plasma, po, 2 mg/kg/day, Dog 4, day 5; 2 mg/kg/day PO
Give bare numbers, in ng·h/mL.

Go through the list and state AUC(0-t) for each entry.
1. c1cc(Nc2nccc(-c3cccs3)n2)cc(OCCn2ccnc2)c1
2. Cc1cc(Nc2nccc(-c3ccncc3)n2)ccc1N.Cl.Cl [Compound 2, reference compound]

510
105
